The reader will find reported folding stability dG unfold values listed item by item below.
experiment.description: folding stability dG unfold (combined trypsin and chymotrypsin); higher = more stable

Look over these answered cases.
SAGGKIGQEVDPGEPITIPIVKRDGDNPKKEKINFRLPPGMRIRPKDDNIMIRFPGNGQEQTIPLKDLSAGG [r13_275_TrROS] : < -1 kcal/mol
EPNYLVQIEIEPRMYQKDEDGKPLKPQPMKQPFFGPADDPEQVKDNLRDNFGPEVEIDEVMPLEDINEGQFS [r1_493_TrROS] : < -1 kcal/mol

Please look at the following sequence next.
Enquiry: What does the record list as folding stability dG unfold for SAGGSAGGSAGGNKIHIMMPYDWAEEFANELQQQGIDPDNVKIEVHPMEMPPPPPPGDKSAGGSAGGSAGGS [r10_602_TrROS] ?
Return: < -1 kcal/mol

Recorded values, source the supplement of paper PMC12764529.
